Measured values drawn from ChEMBL document CHEMBL4184169 for this set.

Target: Aromatase (Homo sapiens)
Sequence (P11511 whole entry): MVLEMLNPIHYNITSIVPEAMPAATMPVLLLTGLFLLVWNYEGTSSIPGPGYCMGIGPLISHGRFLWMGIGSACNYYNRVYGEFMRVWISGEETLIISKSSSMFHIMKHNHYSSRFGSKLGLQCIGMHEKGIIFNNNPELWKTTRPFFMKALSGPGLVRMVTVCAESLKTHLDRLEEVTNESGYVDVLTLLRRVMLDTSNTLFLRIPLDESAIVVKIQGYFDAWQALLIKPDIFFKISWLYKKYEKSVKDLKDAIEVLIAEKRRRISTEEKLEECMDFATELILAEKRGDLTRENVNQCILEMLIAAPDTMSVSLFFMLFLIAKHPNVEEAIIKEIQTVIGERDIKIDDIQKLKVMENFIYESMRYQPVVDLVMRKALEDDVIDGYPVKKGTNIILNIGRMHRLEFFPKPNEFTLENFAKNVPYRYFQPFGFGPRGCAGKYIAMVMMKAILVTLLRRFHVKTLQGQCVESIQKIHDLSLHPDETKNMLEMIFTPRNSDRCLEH
Assay: Inhibition of CYP19A1 (unknown origin) at 50 uM preincubated with NADPH followed by DBF substrate addition after 30 mins by fluorescence based assay relative to control
endpoint: inhibition at 50 µM (%)
The reply should contain only the number, in %.

Reference set (2 entries):
N#Cc1ccc2[nH]c(-c3cccnc3)cc2c1 = 93.7
Fc1ccc(-c2cc3ccccc3[nH]2)cc1 = 21.8

`c1ccc2[nH]c(-c3ccsc3)cc2c1` has a reported inhibition at 50 µM of 22

`O=[N+]([O-])c1ccc2[nH]c(-c3cccnc3)cc2c1` has a reported inhibition at 50 µM of 27.9
